Hello, the source for this data is the Immune Epitope Database (IEDB), in case you need it.

- assay system: HLA-B*58:01
- experiment summary: IEDB peptide-MHC binding, purified MHC/direct/fluorescence; filed as Kd, often an IC50 or EC50 that approximates it; bounds were set here for any values at or beyond the usual limits of such assays
- experimental context: source organism: Escherichia coli 536
pKd: −log10 of the molar value.
measured parameter: pKd

Form field pKd for item "RMYGISPWT" on HLA-B*58:01: ≤ 4.70

###

- assay system: HLA-B*18:01
- experiment summary: IEDB peptide-MHC binding, purified MHC/direct/fluorescence; filed as Kd, often an IC50 or EC50 that approximates it; bounds were set here for any values at or beyond the usual limits of such assays
- experimental context: source organism: Aracatuba virus
pKd: −log10 of the molar value.
measured parameter: pKd

// "YKEPNSIIL" : pKd value = ≤ 4.70
